- targetEntity: 猴SIRPα受体 on CHO cells (CHO-cyno-SIRPα) (monkey (cyno))
- testProtocol: flow cytometry, hybridoma supernatant on CHO-cyno-SIRPα cells, PE anti-mouse IgG Fc
Please provide measured MFI for the entries that follow.
// return the numeric value with its unit appended

binder	experimentalValue
57B10 (antibody, V domains shown, also called 抗SIRPα抗体57B10) VH: EVKLQESGAELVRSGASVKMSCKASGYTFTSYNMHWIKQTPGQGLEWIGYIYPGNGATNYNQKFKGKATLTADTSSSTAYMQISSLTSEDSAVYFCARNYDYYFYTMDYWGQGTTVTVSS VL: DIVLTQSTKFMSTSVGDRVSITCKASQDVSTAVAWYQQKPGQSPKLLIYSASYRYTGVPDRFTGSGSRTDFTFTISSVQAEDLAVFYCQQHFSAPLTFGAGTKLELK	9230 MFI
40F3 (antibody, V domains shown, also called 抗SIRPα抗体40F3) VH: QVQLQQPGAELGKPGASVKLSCKASGYTFSSYYIYWLKQRPGQGLEWIGGINPSNDDTHLTEKFKSKATLIADRSSSTAYIQLSSLTSEDSAVYYCTRSYYANSWFAYWGQGTLVTVSA VL: DIVLTQSPLSLPVSLGDQASISCRSSQTIVHSNGNTYLAWYLQKPGQSPKLLIYKVSNRFSGVPDRFSGSGSGTEFTLKISRVEAEDLGVYYCFQGSHVPYTFGGGTKLEIK	7570 MFI
36G4 (antibody, V domains shown, also called 抗SIRPα抗体36G4) VH: EVQLVESGGGLVQPGGSLKLSCAASGFTFSNYGMSWVRQTPDKRLELVATINSNGGDTSYPDSVRGRFTISRDNAKNTLYLQMSSLKSEDTAMYYCTRGGWSWFAYWGQGTLVTVSA VL: DIVLTQSPTSLAVSLGQRATISCRASESADSYGNSYMNWYQQKPGQPPKLLIYLASNLESGVPARFSGSGSRTDFTLTIDPVEADDAATYYCQQINEDPYTFGGGTKLEIK	4560 MFI
36D6 (antibody, V domains shown, also called 抗SIRPα抗体36D6) VH: EVQLQESGPELKKPGETVKISCKASGYTFTKYGMNWVKQAPGKGLKWLAWINTDTGEAKYSDDFKGRFAFSLETSASIVYLQINNLKNEDTATYFCARGESYSNYVRFVYWGQGTTVTVSS VL: DIVMTQSHKFMSTSVGDRVSITCKASQDVNTAVAWYQQKAGHSPKLLIYWTSTRHTGVPDRFTGSGSGTDYTLTISSVQAEDLTLYYCQQHYSTPWTFGGGTKLEIK	5000 MFI

API: the following record is the query input.
Prompt: // lookup MFI for 52B3 (antibody, V domains shown, also called 抗SIRPα抗体52B3) VH: EVQLQQSGAELVRSGASVKMSCKASDYTFTSYNLHWVKQTPGQGLEWIGYIYPGNGNTKYSQKFKGKATLTADTSSSTAYMQISSLTSEDSAVYFCTRNYDYYFYTMGYWGQGTTVTVSS VL: DIVLTQSPKFMSTSVGDRVNITCKASQDVCTAVAWYQQKPGQSPKLLIYSASYRYTGVPDRFTGSGSRTDFTFTISSVQAEDLAVYYCQQHYSTPLTFGAGTKLELK
Response: 6980 MFI

Data origin: patent CN114685656A
